assay.procedure: Cell viability assay (XTT), 24 h treatment
Format: cell-based
test.context: Chinese hamster, CHO-K1, 7.8 μM (lowest concentration)
experimental.endpoint: viability at 24 h, 7.8 µM (%)
Give just the number in %; leave the unit off.

> print(dat)
                                   compound  test.result
1  COc1ccc(/C=C\c2cc(OC)cc(OC)c2)cc1 [cis-TMS]         60.7

Moving on to the next compound.
Q) # lookup: viability at 24 h, 7.8 µM of COc1ccc(/C=C/c2cc(OC)cc(OC)c2)cc1 [trans-TMS]
A) 62.5

###

Measured viability at 24 h, 7.8 µM of individual entries
assay.procedure: Cell viability assay (XTT), 24 h treatment
Type: cell-based
test.context: human, HepG2, 7.8 μM (lowest concentration)
Give just the number in %; leave the unit off.

> print(dat)
                                   compound  test.result
1  COc1ccc(/C=C/c2cc(OC)cc(OC)c2)cc1 [trans-TMS]         59.1

Moving on to the next compound.
Q) # lookup: viability at 24 h, 7.8 µM of COc1ccc(/C=C\c2cc(OC)cc(OC)c2)cc1 [cis-TMS]
A) 49
